test: Half-life in C57BL/6J mouse at 10 mg/kg, po measured upto 24 hrs by LC-MS analysis; settings: in vivo
reported endpoint: half-life at 24 h

Specify half-life at 24 h for O=C1CCN(c2cc(C(=O)N3CCC(CC4CCN(c5ccc(-c6cnc7[nH]cc(-c8cnn(CC(F)(F)F)c8)c7n6)cn5)CC4)CC3)ccc2Cl)C(=O)N1 and stop.
3.44 h

====

experiment: in vitro; conditions: rat, liver microsomes
reported endpoint: half-life at 0.75 h, 1 µM (h)
All answers are understood in h, so give the number only.

For the compound O=C1CCN(c2cc(C(=O)N3CCC(CC4CCN(c5ccc(-c6cnc7[nH]cc(-c8cnn(CC(F)(F)F)c8)c7n6)cn5)CC4)CC3)ccc2Cl)C(=O)N1 , give its reported half-life at 0.75 h, 1 µM.
4.12

====

experiment: in vivo; conditions: beagle, dog, po, 5 mg/kg
Description: Cmax in Beagle dog at 5 mg/kg, po measured upto 24 hrs by LC-MS analysis
reported endpoint: Cmax at 24 h (ng/mL)
Could you give me the number in ng/mL? Just the number is fine.

State, in one line, measured Cmax at 24 h of O=C1CCN(c2cc(C(=O)N3CCC(CC4CCN(c5ccc(-c6cnc7[nH]cc(-c8cnn(CC(F)(F)F)c8)c7n6)cn5)CC4)CC3)ccc2Cl)C(=O)N1
111

====

assay: Tmax in C57BL/6J mouse at 10 mg/kg, po measured upto 24 hrs by LC-MS analysis; assay type: ADME, organism-based; details: in vivo
reported endpoint: Tmax

Provide Tmax value for the following compound: O=C1CCN(c2cc(C(=O)N3CCC(CC4CCN(c5ccc(-c6cnc7[nH]cc(-c8cnn(CC(F)(F)F)c8)c7n6)cn5)CC4)CC3)ccc2Cl)C(=O)N1
1 h

====

assay: in vitro; details: mouse, liver microsomes
reported endpoint: half-life at 0.75 h, 1 µM (h)
API: value field is a number in h; no unit string.

Assign half-life at 0.75 h, 1 µM to the following record: O=C1CCN(c2cc(C(=O)N3CCC(CC4CCN(c5ccc(-c6cnc7[nH]cc(-c8cnn(CC(F)(F)F)c8)c7n6)cn5)CC4)CC3)ccc2Cl)C(=O)N1
1.73

====

experiment: in vivo; settings: male, Sprague-Dawley, rat, po, 2 mg/kg
reported endpoint: Cmax at 24 h (ng/mL)
Quick note: give the figure in ng/mL, leave out the unit.

Quickly give me recorded Cmax at 24 h for O=C1CCN(c2cc(C(=O)N3CCC(CC4CCN(c5ccc(-c6cnc7[nH]cc(-c8cnn(CC(F)(F)F)c8)c7n6)cn5)CC4)CC3)ccc2Cl)C(=O)N1
84

====

test: in vivo; settings: male, Sprague-Dawley, rat, po, 100 mg/kg
reported endpoint: Cmax at 24 h (µg/mL)
Write it as a number; the unit µg/mL goes unstated.

Kindly indicate its recorded Cmax at 24 h. Item: O=C1CCN(c2cc(C(=O)N3CCC(CC4CCN(c5ccc(-c6cnc7[nH]cc(-c8cnn(CC(F)(F)F)c8)c7n6)cn5)CC4)CC3)ccc2Cl)C(=O)N1
8.62

====

assay: Metabolic stability in monkey liver microsomes assessed as intrinsic clearance at 1 uM incubated for 45 mins by LC-MS/MS method; assay type: ADME, Macaca mulatta, Microsome; conditions: rhesus monkey, read-out: CLH
reported endpoint: microsomal CLint at 1 µM (µL/min/mg)
Dear colleague, please return just the value in µL/min/mg, with no unit written.

Note microsomal CLint at 1 µM for the compound shown: O=C1CCN(c2cc(C(=O)N3CCC(CC4CCN(c5ccc(-c6cnc7[nH]cc(-c8cnn(CC(F)(F)F)c8)c7n6)cn5)CC4)CC3)ccc2Cl)C(=O)N1
38

====

biological target: Protein cereblon/Mitogen-activated protein kinase kinase kinase kinase 1 (Homo sapiens, UniProt Q92918+Q96SW2); experiment: PROTAC activity at CRBN/HPK1 in human Jurkat cells incubated for 24 hrs by Western blotting analysis; type: cell-based
Sequence (Q92918 whole entry): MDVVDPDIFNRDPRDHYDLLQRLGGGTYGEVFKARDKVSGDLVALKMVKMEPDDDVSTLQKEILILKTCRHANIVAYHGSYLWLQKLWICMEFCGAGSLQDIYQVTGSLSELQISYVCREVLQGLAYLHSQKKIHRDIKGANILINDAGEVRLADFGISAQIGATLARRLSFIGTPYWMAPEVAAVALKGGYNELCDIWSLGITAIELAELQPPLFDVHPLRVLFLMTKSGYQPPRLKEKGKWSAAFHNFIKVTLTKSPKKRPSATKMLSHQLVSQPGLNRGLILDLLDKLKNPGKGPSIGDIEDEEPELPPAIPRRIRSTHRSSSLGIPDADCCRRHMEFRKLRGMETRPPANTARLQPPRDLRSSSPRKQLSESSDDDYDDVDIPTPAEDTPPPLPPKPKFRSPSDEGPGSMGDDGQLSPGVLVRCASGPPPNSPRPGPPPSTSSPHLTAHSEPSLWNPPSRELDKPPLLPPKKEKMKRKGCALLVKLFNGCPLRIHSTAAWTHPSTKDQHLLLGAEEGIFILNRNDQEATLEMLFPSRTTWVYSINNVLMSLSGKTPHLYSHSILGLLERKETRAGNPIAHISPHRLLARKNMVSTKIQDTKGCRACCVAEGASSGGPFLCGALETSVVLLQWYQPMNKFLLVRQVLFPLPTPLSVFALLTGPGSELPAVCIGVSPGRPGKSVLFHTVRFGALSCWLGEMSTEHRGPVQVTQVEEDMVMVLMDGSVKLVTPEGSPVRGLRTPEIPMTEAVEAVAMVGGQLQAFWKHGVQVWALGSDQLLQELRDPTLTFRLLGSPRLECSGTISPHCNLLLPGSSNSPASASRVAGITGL
Sequence (Q96SW2 whole entry): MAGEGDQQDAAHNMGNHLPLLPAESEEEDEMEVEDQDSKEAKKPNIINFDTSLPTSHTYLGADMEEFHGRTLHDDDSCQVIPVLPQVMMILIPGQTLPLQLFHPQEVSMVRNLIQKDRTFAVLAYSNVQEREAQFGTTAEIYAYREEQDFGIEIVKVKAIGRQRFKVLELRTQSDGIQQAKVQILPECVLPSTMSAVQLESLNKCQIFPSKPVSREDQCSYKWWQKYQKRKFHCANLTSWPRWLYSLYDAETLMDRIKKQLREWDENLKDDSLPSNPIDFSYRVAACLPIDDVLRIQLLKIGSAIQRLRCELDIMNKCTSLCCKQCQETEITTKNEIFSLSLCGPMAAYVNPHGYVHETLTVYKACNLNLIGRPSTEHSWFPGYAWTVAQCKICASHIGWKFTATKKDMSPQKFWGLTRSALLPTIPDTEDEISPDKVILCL
So I've got a bunch of compounds here, and I need their DC50 values.
Write down the numeric answer in nM and omit the unit.

Recall and state the measured DC50 for O=C1CCN(c2cc(C(=O)N3CCC(CC4CCN(c5ccc(-c6cnc7[nH]cc(-c8cnn([C@@H]9CCOC9)c8)c7n6)cn5)CC4)CC3)ccc2Cl)C(=O)N1 .
83

State its DC50: CCN1CCC(n2cc(-c3c[nH]c4ncc(-c5cnc(OCCNC(=O)c6ccc(Cl)c(N7CCC(=O)NC7=O)c6)c(C)c5)nc34)cn2)CC1
55

Provide one value: measured DC50 of CCN1CCC(n2cc(-c3c[nH]c4ncc(-c5ccc(N6CCC(CC7CCN(C(=O)c8ccc(C)c(N9CCC(=O)NC9=O)c8)CC7)CC6)cc5)nc34)cn2)CC1
616

Give the reported value of DC50 for this record: O=C1CCN(c2cc(C(=O)N3CCC(CC4CCN(c5ccc(-c6cnc7[nH]cc(-c8cnn(CC9CC9)c8)c7n6)cn5)CC4)CC3)ccc2Cl)C(=O)N1
632

Output DC50 of O=C1CCN(c2cc(C(=O)N3CCC(CC4CCN(c5ccc(-c6cnc7[nH]cc(-c8cn[nH]c8)c7n6)cn5)CC4)CC3)ccc2Cl)C(=O)N1
32.9

Quick one: give measured DC50 for CCN1CCC(n2cc(-c3c[nH]c4ncc(-c5ccc(N6CCC(C)(CN7CCN(C(=O)c8ccc(Cl)c(N9CCC(=O)NC9=O)c8)CC7)CC6)cc5)nc34)cn2)CC1
52.4

====

I'd appreciate it if you could supply Emax values for the items below.
biological target: Protein cereblon/Mitogen-activated protein kinase kinase kinase kinase 1 (Homo sapiens, UniProt Q92918+Q96SW2); assay: PROTAC activity at CRBN/HPK1 in human Jurkat cells assessed as maximum degradation incubated for 24 hrs by Western blotting analysis; type: cell-based
Sequence (Q92918 whole entry, looked up): as the sequence (Q92918 whole entry) above
Sequence (Q96SW2 whole entry, looked up): as the sequence (Q96SW2 whole entry) above
Dear colleague, please return just the value in %, with no unit written.

Read off the recorded Emax for O=C1CCN(c2cc(C(=O)N3CCC(CC4CCN(c5ccc(-c6cnc7[nH]cc(-c8cnn(C9CC9)c8)c7n6)cn5)CC4)CC3)ccc2Cl)C(=O)N1
87

Quickly give me recorded Emax for CCn1cc(-c2c[nH]c3ncc(-c4ccc(N5CCC(CC6CCN(C(=O)c7ccc(Cl)c(N8CCC(=O)NC8=O)c7)CC6)CC5)nc4)nc23)cn1
87

Specify measured Emax for O=C1CCN(c2cc(C(=O)N3CCC(CC4CCN(c5ccc(-c6cnc7[nH]cc(-c8cnn(CC(F)F)c8)c7n6)cn5)CC4)CC3)ccc2Cl)C(=O)N1 .
81

====

assay: Clearance in mouse at 2 mg/kg, iv measured upto 24 hrs by LC-MS analysis; type: ADME, organism-based; conditions: in vivo
Field: clearance. Provide a value for each of the compounds that follow.
The response must be a number in mL/min/kg with no trailing unit.

Recall and state the measured clearance for O=C1CCN(c2cc(C(=O)N3CCC(CC4CCN(c5ccc(-c6cnc7[nH]cc(-c8cnn(CC(F)(F)F)c8)c7n6)cn5)CC4)CC3)ccc2Cl)C(=O)N1 .
0.598

Please supply the value of reported clearance for the item CCN1CCC(n2cc(-c3c[nH]c4ncc(-c5ccc(N6CCC(CC7CCN(C(=O)c8ccc(Cl)c(N9CCC(=O)NC9=O)c8)CC7)CC6)nc5)nc34)cn2)CC1
27.5

Give the value of clearance reported for the following: O=C1CCN(c2cc(C(=O)N3CCC(CC4CCN(c5ccc(-c6cnc7[nH]cc(-c8cnn(CCF)c8)c7n6)cn5)CC4)CC3)ccc2Cl)C(=O)N1
4.5

Supply clearance value. Item: Cn1cc(-c2c[nH]c3ncc(-c4ccc(N5CCC(CC6CCN(C(=O)c7ccc(Cl)c(N8CCC(=O)NC8=O)c7)CC6)CC5)nc4)nc23)cn1
8.27

====

target: Protein cereblon/Mitogen-activated protein kinase kinase kinase kinase 1 (Homo sapiens, UniProt Q92918+Q96SW2); experiment: PROTAC activity at CRBN/HPK1 in human Jurkat cells assessed as maximum degradation incubated for 24 hrs by Western blotting analysis; type: cell-based
reported endpoint: Emax (%)
Provide only the numeric value, understood in %.

Note down Emax recorded for O=C1CCN(c2cc(C(=O)N3CCC(CC4CCN(c5ccc(-c6cnc7[nH]cc(-c8cnn([C@@H]9CCOC9)c8)c7n6)cn5)CC4)CC3)ccc2Cl)C(=O)N1
84

For the molecule O=C1CCN(c2cc(C(=O)N3CCC(CC4CCN(c5ccc(-c6cnc7[nH]cc(-c8cn[nH]c8)c7n6)cn5)CC4)CC3)ccc2Cl)C(=O)N1 , give its reported Emax.
92

Output Emax of CCN1CCC(n2cc(-c3c[nH]c4ncc(-c5ccc(N6CCC(F)(CN7CCN(C(=O)c8ccc(Cl)c(N9CCC(=O)NC9=O)c8)CC7)CC6)cc5)nc34)cn2)CC1
58

For Cn1cc(-c2c[nH]c3ncc(-c4ccc(N5CCC(CC6CCN(C(=O)c7ccc(Cl)c(N8CCC(=O)NC8=O)c7)CC6)CC5)nc4)nc23)cn1 , write its Emax.
93

Kindly indicate its recorded Emax. Item: CCN1CCC(n2cc(-c3c[nH]c4ncc(-c5ccc(N6CCC(C)(CN7CCN(C(=O)c8ccc(Cl)c(N9CCC(=O)NC9=O)c8)CC7)CC6)cc5)nc34)cn2)CC1
81

Supply measured Emax of CCN1CCC(n2cc(-c3c[nH]c4ncc(-c5ccc(N6CCC(CC7CCN(C(=O)c8ccc(Cl)c(N9CCC(=O)NC9=O)c8)CC7)CC6)nc5)nc34)cn2)CC1 in your reply.
93

Hello, please tell me recorded Emax for this one: O=C1CCN(c2cc(C(=O)N3CCC(CC4CCN(c5ccc(-c6cnc7[nH]cc(-c8cnn(CC(F)(F)F)c8)c7n6)cn5)CC4)CC3)ccc2Cl)C(=O)N1
94

Give the measured Emax for O=C1CCN(c2cc(C(=O)N3CCC(CC4CCN(c5ccc(-c6cnc7[nH]cc(-c8cnn(CCF)c8)c7n6)cn5)CC4)CC3)ccc2Cl)C(=O)N1
78

Give the measured Emax for CCN1CCC(n2cc(-c3c[nH]c4ncc(-c5cnc(OCCNC(=O)c6ccc(Cl)c(N7CCC(=O)NC7=O)c6)c(C)c5)nc34)cn2)CC1
86

Give Emax for CC(C)(C#N)n1cc(-c2c[nH]c3ncc(-c4ccc(N5CCC(CC6CCN(C(=O)c7ccc(Cl)c(N8CCC(=O)NC8=O)c7)CC6)CC5)nc4)nc23)cn1
64

Input CCN1CCC(n2cc(-c3c[nH]c4ncc(-c5ccc(N6CCC(OC7CCN(C(=O)c8ccc(Cl)c(N9CCC(=O)NC9=O)c8)CC7)CC6)c(F)c5)nc34)cn2)CC1 , output reported Emax.
78

Give a short answer stating reported Emax for O=C1CCN(c2cc(C(=O)N3CCC(CC4CCN(c5ccc(-c6cnc7[nH]cc(-c8cnn(C(F)F)c8)c7n6)cn5)CC4)CC3)ccc2Cl)C(=O)N1 .
67

// fetch Emax given entry CCN1CCC(n2cc(-c3c[nH]c4ncc(-c5ccc(N6CCC(OC7CCN(C(=O)c8ccc(Cl)c(N9CCC(=O)NC9=O)c8)CC7)CC6)c(C)c5)nc34)cn2)CC1
73

// fetch Emax given entry O=C1CCN(c2cc(C(=O)N3CCC(CC4CCN(c5ccc(-c6cnc7[nH]cc(-c8cnn(CC9CC9)c8)c7n6)cn5)CC4)CC3)ccc2Cl)C(=O)N1
52

Return value of Emax for input CCN1CCC(n2cc(-c3c[nH]c4ncc(-c5ccc(N6CCC(CC7CCN(C(=O)c8ccc(Cl)c(N9CCC(=O)NC9=O)c8)CC7C)CC6)cc5)nc34)cn2)CC1 (centres undefined) , no commentary.
66

Fill in reported Emax for this entry: O=C1CCN(c2cc(C(=O)N3CCC(CC4CCN(c5ccc(-c6cnc7[nH]cc(-c8cnn(CCO)c8)c7n6)cn5)CC4)CC3)ccc2Cl)C(=O)N1
84

Please supply the value of reported Emax for the item CCN1CCC(n2cc(-c3c[nH]c4ncc(-c5ccc(N6CCC(CC7CCN(C(=O)c8ccc(Cl)c(N9CCC(=O)NC9=O)c8)CC7)CC6)c(F)c5)nc34)cn2)CC1
63

Give reported Emax value for COCCn1cc(-c2c[nH]c3ncc(-c4ccc(N5CCC(CC6CCN(C(=O)c7ccc(Cl)c(N8CCC(=O)NC8=O)c7)CC6)CC5)nc4)nc23)cn1
76

Give Emax for the following molecule: CCN1CCC(n2cc(-c3c[nH]c4ncc(-c5ccc(N6CCC(CC7CCN(C(=O)c8ccc(C)c(N9CCC(=O)NC9=O)c8)CC7)CC6)cc5)nc34)cn2)CC1
53
